// reported Minimum inhibitory concentration for each item listed
Test system: Candida albicans
experiment-notes: MIC, clinical yeast strains
Type: cell-based
reported-conditions: Candida albicans clinical yeast strain 4
Where a SMILES comes first, the peptide text is derived from it. [ ]: non-standard residue; d: D form.
Just the number.

- molecule: "CC(C)C[C@@H](NC(=O)[C@H](N)CCCNC(=N)N)C(=O)N[C@H](CCCCN)C(=O)N[C@H](Cc1c[nH]c2ccccc12)C(=O)N[C@H](Cc1ccccc1)C(=O)N[C@H](CC(C)C)C(=O)N[C@H](CC(C)C)C(=O)N[C@H](Cc1ccccc1)C(=O)N[C@H](CCCNC(=N)N)C(=O)N[C@H](CCCCN)C(=O)N[C@H](CCCNC(=N)N)C(=O)O [Chain308D] (H-[dR][dL][dK][dW][dF][dL][dL][dF][dR][dK][dR]-OH)"
  reported: 16

Now look at this one.
Item under review: CC(C)C[C@@H](NC(=O)[C@H](N)CCCNC(=N)N)C(=O)N[C@H](CCCCN)C(=O)N[C@H](Cc1c[nH]c2ccccc12)C(=O)N[C@H](Cc1ccccc1)C(=O)N[C@H](Cc1c[nH]c2ccccc12)C(=O)N[C@H](CC(C)C)C(=O)N[C@H](Cc1ccccc1)C(=O)N[C@H](CCCNC(=N)N)C(=O)N[C@H](CCCCN)C(=O)N[C@H](CCCNC(=N)N)C(=O)O [Chain307D] (H-[dR][dL][dK][dW][dF][dW][dL][dF][dR][dK][dR]-OH) . Reported Minimum inhibitory concentration?
16

====

Test system: clinical strains of E. cloacae
experiment-notes: MIC, microdilution, clinical strains
Type: cell-based
reported-conditions: Enterobacter cloacae strain 3, Muller Hinton broth-cation adjusted, 0.02% BSA, 0.2% acetic acid
Where a SMILES comes first, the peptide text is derived from it. [ ]: non-standard residue; d: D form.
// reported Minimum inhibitory concentration for each item listed
Just the number.

- compound: "CC(C)C[C@@H](NC(=O)[C@H](N)CCCCN)C(=O)N[C@H](CCCCN)C(=O)N[C@H](Cc1c[nH]c2ccccc12)C(=O)N[C@H](Cc1ccccc1)C(=O)N[C@H](Cc1c[nH]c2ccccc12)C(=O)N[C@H](CC(C)C)C(=O)N[C@H](Cc1ccccc1)C(=O)N[C@H](CCCCN)C(=O)N[C@H](CCCCN)C(=O)N[C@H](CCCNC(=N)N)C(=O)O [Chain311D] (H-[dK][dL][dK][dW][dF][dW][dL][dF][dK][dK][dR]-OH)"
  reported: 4

Please provide the recorded Minimum inhibitory concentration for CC(C)C[C@@H](NC(=O)[C@H](N)CCCNC(=N)N)C(=O)N[C@H](CCCCN)C(=O)N[C@H](CCCNC(=N)N)C(=O)N[C@H](Cc1c[nH]c2ccccc12)C(=O)N[C@H](CCCNC(=N)N)C(=O)N[C@H](CC(C)C)C(=O)N[C@H](Cc1ccccc1)C(=O)N[C@H](CCCNC(=N)N)C(=O)N[C@H](CCCCN)C(=O)N[C@H](CCCNC(=N)N)C(=O)O [Chain306D] (H-[dR][dL][dK][dR][dW][dR][dL][dF][dR][dK][dR]-OH) , tested on clinical strains of E. cloacae.
32

// same read-out, input: CC[C@@H](C)[C@@H](NC(=O)[C@@H](Cc1c[nH]c2ccccc12)NC(=O)[C@H](N)CCCCN)C(=O)N[C@@H](C(=O)N[C@H](Cc1c[nH]c2ccccc12)C(=O)N[C@H](CCCNC(=N)N)C(=O)N[C@H](Cc1c[nH]c2ccccc12)C(=O)N[C@H](CCCNC(=N)N)C(=O)N[C@H](Cc1ccccc1)C(=O)N[C@H](CCCCN)C(=O)N[C@H](CCCNC(=N)N)C(=O)O)C(C)C [Chain201D] (H-[dK][dW][dI][dV][dW][dR][dW][dR][dF][dK][dR]-OH)
2

====

Tested on: clinical strains of K. pneumoniae
experiment-notes: MIC, microdilution, clinical strains
Format: cell-based
reported-conditions: Klebsiella pneumoniae strain 3, Muller Hinton broth-cation adjusted, 0.02% BSA, 0.2% acetic acid
Where a SMILES comes first, the peptide text is derived from it. [ ]: non-standard residue; d: D form.
reported-metric: Minimum inhibitory concentration
Just the number.

Recorded results for 2 molecules are shown here.
- molecule: "CC(C)C[C@@H](NC(=O)[C@H](N)CCCCN)C(=O)N[C@H](CCCCN)C(=O)N[C@H](Cc1c[nH]c2ccccc12)C(=O)N[C@H](Cc1ccccc1)C(=O)N[C@H](Cc1c[nH]c2ccccc12)C(=O)N[C@H](CC(C)C)C(=O)N[C@H](Cc1ccccc1)C(=O)N[C@H](CCCCN)C(=O)N[C@H](CCCCN)C(=O)N[C@H](CCCNC(=N)N)C(=O)O [Chain311D] (H-[dK][dL][dK][dW][dF][dW][dL][dF][dK][dK][dR]-OH)"
  Minimum inhibitory concentration: 4
- molecule: "CC(C)C[C@@H](NC(=O)[C@@H](CCCCN)NC(=O)[C@@H](Cc1c[nH]c2ccccc12)NC(=O)[C@@H](CCCCN)NC(=O)[C@@H](C)NC(=O)[C@@H](Cc1c[nH]cn1)NC(=O)[C@@H](CC(C)C)NC(=O)[C@@H](CCCNC(=N)N)NC(=O)[C@@H](Cc1c[nH]c2ccccc12)NC(=O)[C@H](N)Cc1c[nH]c2ccccc12)C(=O)N[C@H](Cc1c[nH]c2ccccc12)C(=O)O [Chain109D] (H-[dW][dW][dR][dL][dH][dA][dK][dW][dK][dL][dW]-OH)"
  Minimum inhibitory concentration: 8

Item under review: CC[C@@H](C)[C@@H](NC(=O)[C@@H](CC(C)C)NC(=O)[C@@H](CCCNC(=N)N)NC(=O)[C@H](N)CCCNC(=N)N)C(=O)N[C@H](Cc1c[nH]c2ccccc12)C(=O)N[C@H](CCCNC(=N)N)C(=O)N[C@H](CCCNC(=N)N)C(=O)N[C@H](Cc1ccccc1)C(=O)N[C@H](CCCCN)C(=O)N[C@H](Cc1c[nH]c2ccccc12)C(=O)N[C@H](CC(C)C)C(=O)N[C@H](CCCNC(=N)N)C(=O)O [Chain204D] (H-[dR][dR][dL][dI][dW][dR][dR][dF][dK][dW][dL][dR]-OH) . Reported Minimum inhibitory concentration?
16

====

Tested on: clinical strains of S. aureus
experiment-notes: MIC, microdilution, clinical strains
Assay type: cell-based
reported-conditions: Staphylococcus aureus strain 4, Muller Hinton broth-cation adjusted, 0.02% BSA, 0.2% acetic acid
Where a SMILES comes first, the peptide text is derived from it. [ ]: non-standard residue; d: D form.
// reported Minimum inhibitory concentration for each item listed

Item under review: CC[C@@H](C)[C@@H](NC(=O)[C@@H](CC(C)C)NC(=O)[C@@H](CCCNC(=N)N)NC(=O)[C@H](N)CCCNC(=N)N)C(=O)N[C@H](Cc1c[nH]c2ccccc12)C(=O)N[C@H](CCCNC(=N)N)C(=O)N[C@H](CCCNC(=N)N)C(=O)N[C@H](Cc1ccccc1)C(=O)N[C@H](CCCCN)C(=O)N[C@H](Cc1c[nH]c2ccccc12)C(=O)N[C@H](CC(C)C)C(=O)N[C@H](CCCNC(=N)N)C(=O)O [Chain204D] (H-[dR][dR][dL][dI][dW][dR][dR][dF][dK][dW][dL][dR]-OH) . Reported Minimum inhibitory concentration?
1

// same read-out, input: CC(C)C[C@@H](NC(=O)[C@H](N)CCCNC(=N)N)C(=O)N[C@H](CCCCN)C(=O)N[C@H](Cc1c[nH]c2ccccc12)C(=O)N[C@H](Cc1ccccc1)C(=O)N[C@H](CC(C)C)C(=O)N[C@H](CC(C)C)C(=O)N[C@H](Cc1ccccc1)C(=O)N[C@H](CCCNC(=N)N)C(=O)N[C@H](CCCCN)C(=O)N[C@H](CCCNC(=N)N)C(=O)O [Chain308D] (H-[dR][dL][dK][dW][dF][dL][dL][dF][dR][dK][dR]-OH)
2

// same read-out, input: CC(C)C[C@@H](NC(=O)[C@H](N)CCCNC(=N)N)C(=O)N[C@H](CCCCN)C(=O)N[C@H](Cc1c[nH]c2ccccc12)C(=O)N[C@H](Cc1ccccc1)C(=O)N[C@H](Cc1c[nH]c2ccccc12)C(=O)N[C@H](CC(C)C)C(=O)N[C@H](Cc1ccccc1)C(=O)N[C@H](CCCNC(=N)N)C(=O)N[C@H](CCCCN)C(=O)N[C@H](CCCNC(=N)N)C(=O)O [Chain307D] (H-[dR][dL][dK][dW][dF][dW][dL][dF][dR][dK][dR]-OH)
2

====

// reported Minimum inhibitory concentration for each item listed
Test system: clinical strains of Serratia marcescens
experiment-notes: MIC, microdilution, clinical strains
Assay type: cell-based
reported-conditions: Serratia marcescens strain 4, Muller Hinton broth-cation adjusted, 0.02% BSA, 0.2% acetic acid
Where a SMILES comes first, the peptide text is derived from it. [ ]: non-standard residue; d: D form.

- compound: "CC(C)C[C@@H](NC(=O)[C@H](N)CCCNC(=N)N)C(=O)N[C@H](CCCCN)C(=O)N[C@H](CCCNC(=N)N)C(=O)N[C@H](Cc1c[nH]c2ccccc12)C(=O)N[C@H](CCCNC(=N)N)C(=O)N[C@H](CC(C)C)C(=O)N[C@H](Cc1ccccc1)C(=O)N[C@H](CCCNC(=N)N)C(=O)N[C@H](CCCCN)C(=O)N[C@H](CCCNC(=N)N)C(=O)O [Chain306D] (H-[dR][dL][dK][dR][dW][dR][dL][dF][dR][dK][dR]-OH)"
  Minimum inhibitory concentration: ">128"

Now look at this one.
Item under review: CC(C)C[C@@H](NC(=O)[C@H](N)CCCNC(=N)N)C(=O)N[C@H](CCCCN)C(=O)N[C@H](Cc1c[nH]c2ccccc12)C(=O)N[C@H](Cc1ccccc1)C(=O)N[C@H](CC(C)C)C(=O)N[C@H](CC(C)C)C(=O)N[C@H](Cc1ccccc1)C(=O)N[C@H](CCCNC(=N)N)C(=O)N[C@H](CCCCN)C(=O)N[C@H](CCCNC(=N)N)C(=O)O [Chain308D] (H-[dR][dL][dK][dW][dF][dL][dL][dF][dR][dK][dR]-OH) . Reported Minimum inhibitory concentration?
>128
